test: Pharmacokinetics assays (plasma and brain); format: in vivo; settings: brain; read-out: Brain T1/2 (converted)
I'd be grateful if you could share measured half-life for these entries.
The response must be a number in h with no trailing unit.

Q: Tell me measured half-life for N#Cc1ccc(-c2cnc3cnc(-c4ccc(C(=O)N5CCOCC5)cc4)cn23)cc1 please.
Ans: 0.69

Q: Tell me measured half-life for N#Cc1ccc(-c2cnn3ccc(-c4ccc(C(=O)N5CCOCC5)cc4)nc23)cc1 please.
Ans: 2.63

Q: Tell me measured half-life for N#Cc1ccc(-c2cnc3ccc(-c4ccc(C(=O)N5CCOCC5)cc4)nn23)cc1 please.
Ans: 4.28

Q: Tell me measured half-life for CN1CCN(C(=O)c2ccc(-c3ccc4ncc(-c5ccc(C#N)cc5)n4c3)cc2)CC1=O please.
Ans: 0.96

Q: Tell me measured half-life for CN(C)C1CCN(C(=O)c2ccc(-c3cn4c(-c5ccc(C#N)cc5)cnc4cn3)cc2)CC1 please.
Ans: 4.11

Q: Tell me measured half-life for CN1CCN(C(=O)c2ccc(-c3cn4c(-c5ccc(C#N)cc5)cnc4cn3)cc2)CC1 please.
Ans: 1.39

Q: Tell me measured half-life for CC(=O)Nc1cc(-c2ccc3ncc(-c4ccc(C#N)cc4)n3c2)ccc1C(=O)N1CCOCC1 please.
Ans: 0.76

Q: Tell me measured half-life for N#Cc1ccc(-c2cnc3ccc(-c4ccc(C(=O)N5CCOCC5)cc4)cn23)cc1 please.
Ans: 2.05
